// values below are reported IC50
SUBJECT OF TEST: rat GPR14 (U-II receptor) (Rattus norvegicus, UniProt P49684)
Construct: expressed in transfected cells
Sequence (P49684 whole entry): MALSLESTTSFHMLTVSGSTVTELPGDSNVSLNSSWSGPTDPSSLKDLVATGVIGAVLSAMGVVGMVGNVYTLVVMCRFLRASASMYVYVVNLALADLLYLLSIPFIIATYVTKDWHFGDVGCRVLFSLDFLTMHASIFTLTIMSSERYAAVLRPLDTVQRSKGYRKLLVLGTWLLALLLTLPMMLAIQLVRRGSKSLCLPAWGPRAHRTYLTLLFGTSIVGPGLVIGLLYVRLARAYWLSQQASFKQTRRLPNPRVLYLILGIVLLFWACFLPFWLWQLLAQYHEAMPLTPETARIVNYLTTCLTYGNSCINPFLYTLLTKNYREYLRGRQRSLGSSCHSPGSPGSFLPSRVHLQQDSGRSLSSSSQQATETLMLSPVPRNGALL
ASSAY DETAILS: Rat UII Calcium Mobilization FLIPR Assay
Format: cell-based
PROTOCOL CONDITIONS: average value for the compound tested; read-out: Rat UII FLIPR Average IC50
Excerpt: To derive these cells, the complete coding sequence of rat U-II (Genbank Accession No. U32673) was amplified by nested PCR from rat heart marathon-Ready cDNA. […] The PCR products were cloned into pcDNA3 (Invitrogen) digested with EcoR I and Xba I. Clones containing rat U-II receptor were verified by complete sequencing of the U-II receptor insert to ensure a lack of PCR-introduced errors. The constructed vector was transfected into CHO cells by using lipofectamine (GIBCO BRL). […]
ENDPOINT NAME: IC50 (nM)

* COc1ccc(C(CCCNS(=O)(=O)c2c(Cl)nc3sccn23)N2C(=O)c3cccc(N4CCN([C@H](C)c5ccccc5)CC4)c3C2=O)cc1OC (stereo partly drawn) | 180
* COc1ccc(C(CCNC(=O)Nc2cccs2)N2C(=O)c3cccc(N4CCN([C@H](C)c5ccccc5)CC4)c3C2=O)cc1OC (stereo partly drawn) | 270
* COc1ccc(C(CCCNS(=O)(=O)c2ccc(Br)s2)N2C(=O)c3cccc(N4CCN([C@H](C)c5ccccc5)CC4)c3C2=O)cc1OC (stereo partly drawn) | 570
* COc1ccc([C@@H](CCNS(=O)(=O)c2c(C)n[nH]c2C)N2C(=O)c3cccc(N4CCN([C@H](C)c5ccccc5)CC4)c3C2=O)cc1OC | 12
* COc1ccc([C@@H](CCCNC(=O)C2CCCO2)N2C(=O)c3cccc(N4CCN([C@H](C)c5ccccc5)CC4)c3C2=O)cc1OC (stereo partly drawn) | 9.4
* COc1ccc([C@@H](CCCNS(=O)(=O)O)N2C(=O)c3cccc(N4CCN([C@H](C)c5ccccc5)CC4)c3C2=O)cc1OC | 9.4

====

// values below are reported Ki
SUBJECT OF TEST: endogenous human UII receptor (Homo sapiens, UniProt Q9UKP6)
ASSAY DETAILS: Human Radioligand Binding Assay ((^125I)-U-II binding to human skeletal muscle myoblasts)
ENDPOINT NAME: Ki (nM)

• COc1ccc([C@@H](CCCNC(=O)c2c(C)nn(C)c2C)N2C(=O)c3cccc(N4CCN([C@H](C)c5ccccc5)CC4)c3C2=O)cc1OC [Cpd 184] = 56
• COc1ccc([C@@H](CCCNS(=O)(=O)c2cnn(C)c2)N2C(=O)c3cccc(N4CCN([C@H](C)c5ccccc5)CC4)c3C2=O)cc1OC [Cpd 136] = 61
• COc1ccc(C(CCCNS(=O)(=O)c2c(C)noc2C)N2C(=O)c3cccc(N4CCN([C@H](C)c5ccccc5)CC4)c3C2=O)cc1OC (stereo partly drawn) [Cpd 112] = 26
• COc1ccc(C(CCCNS(=O)(=O)c2cc(C)oc2C)N2C(=O)c3cccc(N4CCN([C@H](C)c5ccccc5)CC4)c3C2=O)cc1OC (stereo partly drawn) [Cpd 99] = 620

====

SUBJECT OF TEST: Human UII receptor, 6D9 human rhabdomyosarcoma cells (Homo sapiens, UniProt Q9UKP6)
Construct: 6D9: isolated by dilution subcloning of RMS13 cells, ATCC® Number: CRL-2061
Sequence (Q9UKP6 whole entry): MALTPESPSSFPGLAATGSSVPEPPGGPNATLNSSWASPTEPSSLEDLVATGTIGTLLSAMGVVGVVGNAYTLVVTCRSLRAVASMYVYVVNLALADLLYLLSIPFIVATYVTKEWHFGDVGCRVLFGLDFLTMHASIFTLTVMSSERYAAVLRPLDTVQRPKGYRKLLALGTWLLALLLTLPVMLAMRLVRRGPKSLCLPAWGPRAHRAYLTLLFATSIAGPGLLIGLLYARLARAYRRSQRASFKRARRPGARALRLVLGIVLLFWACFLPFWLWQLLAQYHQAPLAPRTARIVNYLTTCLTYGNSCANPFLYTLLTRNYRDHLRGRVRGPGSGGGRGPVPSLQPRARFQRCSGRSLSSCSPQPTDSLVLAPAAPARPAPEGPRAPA
ASSAY DETAILS: Human UII Calcium Mobilization Assay
PROTOCOL CONDITIONS: average value, FLIPR TETRA, read-out: Human UII Ca^+ Mobilization Average IC50
Each entry falls in a class defined on IC50; the bands are zone 1 = under 400 nM, zone 2 = from 400 nM up to 1000 nM, zone 3 = 1000 nM and over

* COc1ccc([C@@H](CCCNC(=O)c2cc(C)[nH]c2C)N2C(=O)c3cccc(N4CCN([C@H](C)c5ccccc5)CC4)c3C2=O)cc1OC | zone 3
* COc1ccc([C@@H](CCCNS(=O)(=O)c2cnc(C)n2C)N2C(=O)c3cccc(N4CCN([C@H](C)c5ccccc5)CC4)c3C2=O)cc1OC | zone 1
* COc1ccc([C@@H](CCNC(=O)c2csc(C)n2)N2C(=O)c3cccc(N4CCN([C@H](C)c5ccccc5)CC4)c3C2=O)cc1OC | zone 3
* COc1ccc(C(CCCNS(N)(=O)=O)N2C(=O)c3cccc(N4CCN([C@H](C)c5ccccc5)CC4)c3C2=O)cc1OC (stereo partly shown) | zone 2
* COc1ccc(C(CCCNS(=O)(=O)c2cccnc2)N2C(=O)c3cccc(N4CCN([C@H](C)c5ccccc5)CC4)c3C2=O)cc1OC (stereo partly shown) | zone 1
* COc1ccc([C@@H](CCCNS(=O)(=O)c2cccs2)N2C(=O)c3cccc(N4CCN(C5CCCCC5)CC4)c3C2=O)cc1OC | zone 3
* COc1ccc([C@@H](CCCNS(=O)(=O)O)N2C(=O)c3cccc(N4CCN([C@H](C)c5ccccc5)CC4)c3C2=O)cc1OC | zone 1
* COc1ccc([C@@H](CCCNC(=O)CN(C)C)N2C(=O)c3cccc(N4CCN([C@H](C)c5ccccc5)CC4)c3C2=O)cc1OC | zone 2
* COc1ccc([C@@H](CCNS(=O)(=O)O)N2C(=O)c3cccc(N4CCN([C@H](C)c5ccccc5)CC4)c3C2=O)cc1OC | zone 1
* COc1ccc([C@@H](CCCNC(=O)C(C)C)N2C(=O)c3cccc(N4CCN([C@H](C)c5ccccc5)CC4)c3C2=O)cc1OC | zone 2
* COc1ccc([C@@H](CCCNS(=O)(=O)c2cccs2)N2C(=O)c3cccc(N4CCNCC4)c3C2=O)cc1OC | zone 2
* CCN1CCN(c2cccc3c2C(=O)N([C@H](CCCOCc2cccs2)c2ccc(OC)c(OC)c2)C3=O)CC1 | zone 3
